Values were extracted from patent US11395857B2.

Measured tissue uptake at 24 h of individual entries
Test: Biodistribution of 177Lu-labeled αMSH analogues in mice bearing B16F10 mouse melanoma
Format: in vivo, C57BL/6J mice
Settings: mouse, thyroid, iv, total radioactivity; 24 h p.i., C57BL/6J mice, B16F10 melanoma; read-out: Biodistribution, Thyroid
Give the number; %ID/g is assumed, so skip it.

Example cases with answers are listed next.
compound	assay-metric	display-unit	measured-number
CCCC[C@H](NC(=O)CN1CCC(NC(=O)[C@H](CCCCNC(=O)CN2CCN(CC(=O)O)CCN(CC(=O)O)CCN(CC(=O)O)CC2)NC(=O)[C@H](CCC(=O)O)NC(=O)CCCc2ccc(I)cc2)CC1)C(=O)N[C@H]1CC(=O)NCCCC[C@@H](C(N)=O)NC(=O)[C@H](Cc2c[nH]c3ccccc23)NC(=O)[C@H](CCCNC(=N)N)NC(=O)[C@@H](Cc2ccccc2)NC(=O)[C@H](Cc2c[nH]cn2)NC1=O [^177Lu-labeled CCZ01082, metal not drawn]	tissue uptake at 24 h	%ID/g	4.03
CCCC[C@H](NC(=O)CN1CCC(NC(=O)[C@H](CCCCNC(=O)CN2CCN(CC(=O)O)CCN(CC(=O)O)CCN(CC(=O)O)CC2)NC(=O)[C@H](CCC(=O)O)NC(=O)CCCc2ccc(I)cc2)CC1)C(=O)N[C@H]1CC(=O)NCCCC[C@@H](C(N)=O)N(C)C(=O)[C@H](Cc2c[nH]c3ccccc23)NC(=O)[C@H](CCCNC(=N)N)N(C)C(=O)[C@@H](Cc2ccccc2)NC(=O)[C@H](Cc2c[nH]cn2)NC1=O [^177Lu-labeled CCZ01118, metal not drawn]	tissue uptake at 24 h	%ID/g	1.59
CCCC[C@H](NC(=O)CN1CCC(NC(=O)CN2CCN(CC(=O)O)CCN(CC(=O)O)CCN(CC(=O)O)CC2)CC1)C(=O)N[C@H]1CC(=O)NCCCC[C@@H](C(N)=O)N(C)C(=O)[C@H](Cc2c[nH]c3ccccc23)NC(=O)[C@H](CCCNC(=N)N)N(C)C(=O)[C@@H](Cc2ccccc2)NC(=O)[C@H](Cc2c[nH]cn2)NC1=O [^177Lu-labeled CCZ01106, metal not drawn]	tissue uptake at 24 h	%ID/g	0.17
CCCC[C@H](NC(=O)CN1CCC(NC(=O)[C@H](CCCCNC(=O)CN2CCN(CC(=O)O)CCN(CC(=O)O)CCN(CC(=O)O)CC2)NC(=O)[C@H](CCC(=O)O)NC(=O)CCCc2ccc(I)cc2)CC1)C(=O)N[C@H]1CC(=O)NCCCC[C@@H](C(N)=O)N(C)C(=O)[C@H](Cc2c[nH]c3ccccc23)N(C)C(=O)[C@H](CCCNC(=N)N)N(C)C(=O)[C@@H](Cc2ccccc2)NC(=O)[C@H](Cc2c[nH]cn2)N(C)C1=O [^177Lu-labeled CCZ01088, metal not drawn]	tissue uptake at 24 h	%ID/g	0.24

Lookup: If you can, please state the reported tissue uptake at 24 h value of CCCC[C@H](NC(=O)CN1CCC(NC(=O)CN2CCN(CC(=O)O)CCN(CC(=O)O)CCN(CC(=O)O)CC2)CC1)C(=O)N[C@H]1CC(=O)NCCCC[C@@H](C(N)=O)N(C)C(=O)[C@H](Cc2c[nH]c3ccccc23)N(C)C(=O)[C@H](CCCNC(=N)N)N(C)C(=O)[C@@H](Cc2ccccc2)NC(=O)[C@H](Cc2c[nH]cn2)N(C)C1=O [^177Lu-labeled CCZ01099, metal not drawn] .
Found: 0.06

Lookup: # tissue uptake at 24 h lookup, item CCCC[C@H](NC(=O)CN1CCC(NC(=O)CN2CCN(CC(=O)O)CCN(CC(=O)O)CCN(CC(=O)O)CC2)CC1)C(=O)N[C@H]1CC(=O)NCCCC[C@@H](C(N)=O)NC(=O)[C@H](Cc2c[nH]c3ccccc23)NC(=O)[C@H](CCCNC(=N)N)NC(=O)[C@@H](Cc2ccccc2)NC(=O)[C@H](Cc2c[nH]cn2)NC1=O [^177Lu-labeled CCZ01048, metal not drawn, reference compound]
Found: 1.24

====

Assay: Biodistribution of 68Ga-labeled peptide in mice bearing B16F10 mouse melanoma
Assay type: in vivo, C57BL/6J mice
Conditions: liver, iv, total radioactivity, 1 h p.i. unblocked, C57BL/6J mice, B16F10 melanoma, read-out: Biodistribution, Liver
assay-metric: tissue uptake at 1 h (%ID/g)
Respond numerically; units are %ID/g and should not be typed.

Lookup: // lookup tissue uptake at 1 h for CCCC[C@H](NC(=O)CN1CCC(NC(=O)CN2CCN(CC(=O)O)CCN(CC(=O)O)CCN(CC(=O)O)CC2)CC1)C(=O)N[C@H]1CC(=O)NCCCC[C@@H](C(N)=O)N(C)C(=O)[C@H](Cc2c[nH]c3ccccc23)N(C)C(=O)[C@H](CCCNC(=N)N)N(C)C(=O)[C@@H](Cc2ccccc2)NC(=O)[C@H](Cc2c[nH]cn2)N(C)C1=O [^68Ga-labeled CCZ01099, metal not drawn]
Found: 0.54

====

Assay: Biodistribution of 68Ga-labeled peptide in mice bearing B16F10 mouse melanoma
Type: in vivo, C57BL/6J mice
Conditions: fat, iv, total radioactivity, 1 h p.i. unblocked, C57BL/6J mice, B16F10 melanoma, read-out: Biodistribution, Fat
assay-metric: tissue uptake at 1 h (%ID/g)
// return numeric value only (unit: %ID/g, not printed)

Lookup: Value lookup for tissue uptake at 1 h; key = CCCC[C@H](NC(=O)CN1CCC(NC(=O)CN2CCN(CC(=O)O)CCN(CC(=O)O)CCN(CC(=O)O)CC2)CC1)C(=O)N[C@H]1CC(=O)NCCCC[C@@H](C(N)=O)N(C)C(=O)[C@H](Cc2c[nH]c3ccccc23)N(C)C(=O)[C@H](CCCNC(=N)N)N(C)C(=O)[C@@H](Cc2ccccc2)NC(=O)[C@H](Cc2c[nH]cn2)N(C)C1=O [^68Ga-labeled CCZ01099, metal not drawn]
Found: 0.09

====

Assay: Biodistribution of 177Lu-labeled αMSH analogues in mice bearing B16F10 mouse melanoma
Type: in vivo, C57BL/6J mice
Conditions: mouse, spleen, iv, total radioactivity; 24 h p.i., C57BL/6J mice, B16F10 melanoma; read-out: Biodistribution, Spleen
Reported tissue uptake at 24 h by item:
Response body: numeric value in %ID/g, unit text excluded.

Answered cases to consult:
molecule	display-unit	tissue uptake at 24 h
CCCC[C@H](NC(=O)CN1CCC(NC(=O)[C@H](CCCCNC(=O)CN2CCN(CC(=O)O)CCN(CC(=O)O)CCN(CC(=O)O)CC2)NC(=O)[C@H](CCC(=O)O)NC(=O)CCCc2ccc(I)cc2)CC1)C(=O)N[C@H]1CC(=O)NCCCC[C@@H](C(N)=O)N(C)C(=O)[C@H](Cc2c[nH]c3ccccc23)NC(=O)[C@H](CCCNC(=N)N)N(C)C(=O)[C@@H](Cc2ccccc2)NC(=O)[C@H](Cc2c[nH]cn2)NC1=O [^177Lu-labeled CCZ01118, metal not drawn]	%ID/g	0.64
CCCC[C@H](NC(=O)CN1CCC(NC(=O)CN2CCN(CC(=O)O)CCN(CC(=O)O)CCN(CC(=O)O)CC2)CC1)C(=O)N[C@H]1CC(=O)NCCCC[C@@H](C(N)=O)N(C)C(=O)[C@H](Cc2c[nH]c3ccccc23)N(C)C(=O)[C@H](CCCNC(=N)N)N(C)C(=O)[C@@H](Cc2ccccc2)NC(=O)[C@H](Cc2c[nH]cn2)N(C)C1=O [^177Lu-labeled CCZ01099, metal not drawn]	%ID/g	0.12
CCCC[C@H](NC(=O)CN1CCC(NC(=O)CN2CCN(CC(=O)O)CCN(CC(=O)O)CCN(CC(=O)O)CC2)CC1)C(=O)N[C@H]1CC(=O)NCCCC[C@@H](C(N)=O)N(C)C(=O)[C@H](Cc2c[nH]c3ccccc23)NC(=O)[C@H](CCCNC(=N)N)N(C)C(=O)[C@@H](Cc2ccccc2)NC(=O)[C@H](Cc2c[nH]cn2)NC1=O [^177Lu-labeled CCZ01106, metal not drawn]	%ID/g	0.2

For the next question, use this molecule.
Lookup: I have this molecule here, CCCC[C@H](NC(=O)CN1CCC(NC(=O)[C@H](CCCCNC(=O)CN2CCN(CC(=O)O)CCN(CC(=O)O)CCN(CC(=O)O)CC2)NC(=O)[C@H](CCC(=O)O)NC(=O)CCCc2ccc(I)cc2)CC1)C(=O)N[C@H]1CC(=O)NCCCC[C@@H](C(N)=O)NC(=O)[C@H](Cc2c[nH]c3ccccc23)NC(=O)[C@H](CCCNC(=N)N)NC(=O)[C@@H](Cc2ccccc2)NC(=O)[C@H](Cc2c[nH]cn2)NC1=O [^177Lu-labeled CCZ01082, metal not drawn] , and I need its recorded tissue uptake at 24 h.
Found: 1.05

====

Assay: Biodistribution of 177Lu-labeled αMSH analogues in mice bearing B16F10 mouse melanoma
Type: in vivo, C57BL/6J mice
Conditions: mouse, thyroid, iv, total radioactivity; 1 h p.i., C57BL/6J mice, B16F10 melanoma; read-out: Biodistribution, Thyroid
We begin with a simple list: items and their reported tissue uptake at 1 h.
Field format: number, assumed %ID/g, no unit text.

Completed entries (count: 2):
compound	display-unit	measured-number
CCCC[C@H](NC(=O)CN1CCC(NC(=O)[C@H](CCCCNC(=O)CN2CCN(CC(=O)O)CCN(CC(=O)O)CCN(CC(=O)O)CC2)NC(=O)[C@H](CCC(=O)O)NC(=O)CCCc2ccc(I)cc2)CC1)C(=O)N[C@H]1CC(=O)NCCCC[C@@H](C(N)=O)N(C)C(=O)[C@H](Cc2c[nH]c3ccccc23)NC(=O)[C@H](CCCNC(=N)N)N(C)C(=O)[C@@H](Cc2ccccc2)NC(=O)[C@H](Cc2c[nH]cn2)NC1=O [^177Lu-labeled CCZ01118, metal not drawn]	%ID/g	2.47
CCCC[C@H](NC(=O)CN1CCC(NC(=O)CN2CCN(CC(=O)O)CCN(CC(=O)O)CCN(CC(=O)O)CC2)CC1)C(=O)N[C@H]1CC(=O)NCCCC[C@@H](C(N)=O)N(C)C(=O)[C@H](Cc2c[nH]c3ccccc23)N(C)C(=O)[C@H](CCCNC(=N)N)N(C)C(=O)[C@@H](Cc2ccccc2)NC(=O)[C@H](Cc2c[nH]cn2)N(C)C1=O [^177Lu-labeled CCZ01099, metal not drawn]	%ID/g	0.22

Lookup: # query: tissue uptake at 1 h of entry CCCC[C@H](NC(=O)CN1CCC(NC(=O)CN2CCN(CC(=O)O)CCN(CC(=O)O)CCN(CC(=O)O)CC2)CC1)C(=O)N[C@H]1CC(=O)NCCCC[C@@H](C(N)=O)NC(=O)[C@H](Cc2c[nH]c3ccccc23)NC(=O)[C@H](CCCNC(=N)N)NC(=O)[C@@H](Cc2ccccc2)NC(=O)[C@H](Cc2c[nH]cn2)NC1=O [^177Lu-labeled CCZ01048, metal not drawn, reference compound]
Found: 2.57

Lookup: Form field: reported tissue uptake at 1 h of CCCC[C@H](NC(=O)CN1CCC(NC(=O)CN2CCN(CC(=O)O)CCN(CC(=O)O)CCN(CC(=O)O)CC2)CC1)C(=O)N[C@H]1CC(=O)NCCCC[C@@H](C(N)=O)N(C)C(=O)[C@H](Cc2c[nH]c3ccccc23)NC(=O)[C@H](CCCNC(=N)N)N(C)C(=O)[C@@H](Cc2ccccc2)NC(=O)[C@H](Cc2c[nH]cn2)NC1=O [^177Lu-labeled CCZ01106, metal not drawn]
Found: 0.43
